Data credit: patent US7288528B2

This listing pairs compounds with measured pIC50.
# measured on: SGLT (Oryctolagus cuniculus, UniProt P11170)
# Construct: To prepare brush border membranes from rabbit small intestine, rabbits were sacrificed
# Sequence (P11170 whole entry): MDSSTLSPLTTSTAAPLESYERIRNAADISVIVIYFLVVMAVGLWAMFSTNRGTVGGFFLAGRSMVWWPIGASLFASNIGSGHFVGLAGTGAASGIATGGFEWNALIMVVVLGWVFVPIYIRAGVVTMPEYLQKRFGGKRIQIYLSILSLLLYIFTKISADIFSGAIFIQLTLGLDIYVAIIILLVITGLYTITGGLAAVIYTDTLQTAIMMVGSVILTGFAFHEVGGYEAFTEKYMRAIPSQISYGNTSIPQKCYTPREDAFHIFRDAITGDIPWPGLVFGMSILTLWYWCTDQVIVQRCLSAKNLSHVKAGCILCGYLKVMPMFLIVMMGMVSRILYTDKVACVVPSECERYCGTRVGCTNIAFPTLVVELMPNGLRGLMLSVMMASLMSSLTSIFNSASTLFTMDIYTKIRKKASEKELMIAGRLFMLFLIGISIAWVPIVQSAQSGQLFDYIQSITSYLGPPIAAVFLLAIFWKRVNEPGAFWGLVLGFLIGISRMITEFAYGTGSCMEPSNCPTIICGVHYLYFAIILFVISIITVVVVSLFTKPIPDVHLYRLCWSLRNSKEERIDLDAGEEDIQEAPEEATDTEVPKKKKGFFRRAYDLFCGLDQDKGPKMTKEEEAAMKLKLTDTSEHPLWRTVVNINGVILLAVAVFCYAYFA
# assay remarks: Glucose uptake by brush border membrane vesicles (transport assay, membrane filtration method)
# condition: uptake of 10 μM [14C]D-glucose into rabbit small intestine brush border membrane vesicles, 30° C., 15 seconds
pIC50 (log units): -log10 of the concentration in mol/L.

Example cases with answers are listed next.
>>> readout_value("Cc1cc(O)c(C(=O)CCc2ccc3occc3c2)c(OC2OC(CO)C(F)C(O)C2O)c1 (single isomer, unassigned) [Example 5]")
6.40
>>> readout_value("COc1ccc(Cc2ccccc2OC2OC(CO)C(F)C(O)C2O)cc1 (centres unmarked) [Example 1]")
6.30
>>> readout_value("OCC1OC(Oc2ccccc2Cc2ccccc2)C(O)C(O)C1F (centres unmarked) [Example 2]")
6.15
>>> readout_value("Cc1cc(O)c(C(=O)CCc2ccc3occc3c2)c(OC2OC(CO)C(F)C(O)C2O)c1 (single isomer, unassigned) [Example 4]")
5.82

Proceed to the following item.
Prompt line: Could you share what pIC50 was measured for COc1ccc(CCC(=O)c2c(O)cc(C)cc2OC2OC(CO)C(F)C(O)C2O)cc1 (centres unmarked) [Example 7] , tested on SGLT (Oryctolagus cuniculus, UniProt P11170)?
Response line: 6.05
